- Test system: Staphylococcus aureus
- Protocol notes: Antibacterial activity against methicillin-resistant Staphylococcus aureus clinical isolate 12 measured after 18 hrs by CLSI based broth microdilution method
- Format: functional
// MIC lookup, one value per entry
Provide only the numeric value, understood in µg/mL.

Q: # get_value(readout='MIC', item= CCNC(=O)C[N+](C)(C)CCCOc1ccc2ccc(=O)oc2c1CC=C(C)C.[Br-] )
Result: 128

Q: Report MIC for CC(C)=CCc1c(OCCC[N+](C)(C)CC(=O)N(CC(C)C)CC(C)C)ccc2ccc(=O)oc12.[Br-] please.
Result: 8

Q: Which value of MIC has been reported for CCCCCCNC(=O)C[N+](C)(C)CCCCCOc1ccc2ccc(=O)oc2c1CC=C(C)C.[Br-] in the records?
Result: 2

Q: Item CC(C)=CCc1c(OCCCCC[N+](C)(C)CC(=O)N(C(C)C)C(C)C)ccc2ccc(=O)oc12.[Br-] has what recorded MIC?
Result: 8

Q: What does the data say about its MIC? Entry: CC(C)=CCc1c(OCCCCC[N+](C)(C)CC(=O)N(CC(C)C)CC(C)C)ccc2ccc(=O)oc12.[Br-]
Result: 2

Q: // MIC lookup, key: CCN(CC)C(=O)C[N+](C)(C)CCCCCOc1ccc2ccc(=O)oc2c1CC=C(C)C.[Br-]
Result: 64

Q: For the compound shown here, CCCCCCNC(=O)C[N+](C)(C)CCCCOc1ccc2ccc(=O)oc2c1CC=C(C)C.[Br-] , give the reported MIC.
Result: 8

Q: Any idea what its MIC is? The compound is CCN(CC)C(=O)C[N+](C)(C)CCCCOc1ccc2ccc(=O)oc2c1CC=C(C)C.[Br-]
Result: 128

====

- Test system: Staphylococcus aureus
- Protocol notes: Antibacterial activity against methicillin-resistant Staphylococcus aureus clinical isolate 16 measured after 18 hrs by CLSI based broth microdilution method
- Type: functional
Quantity measured: MIC (µg/mL)
Please state the figure in µg/mL; there is no need to write the unit.

CCCCCCNC(=O)C[N+](C)(C)CCCCCOc1ccc2ccc(=O)oc2c1CC=C(C)C.[Br-] 1

Q: Field request: MIC | item: CCCNC(=O)C[N+](C)(C)CCCCCOc1ccc2ccc(=O)oc2c1CC=C(C)C.[Br-]
Result: 16

Q: Please look up its MIC: CCCNC(=O)C[N+](C)(C)CCCCOc1ccc2ccc(=O)oc2c1CC=C(C)C.[Br-]
Result: 32

====

- Tested on: Staphylococcus aureus
- Protocol notes: Antibacterial activity against methicillin-resistant Staphylococcus aureus clinical isolate 20 measured after 18 hrs by CLSI based broth microdilution method
- Assay type: functional
Quantity measured: log10 of MIC (log10 of the value in µg/mL)
A difference of one corresponds to tenfold MIC; all values are log10 with MIC in µg/mL.

Worked cases, log10 of MIC given:
CCCN(CCC)C(=O)C[N+](C)(C)CCCCCOc1ccc2ccc(=O)oc2c1CC=C(C)C.[Br-] 0.90
CCCCCNC(=O)C[N+](C)(C)CCCCCOc1ccc2ccc(=O)oc2c1CC=C(C)C.[Br-] 1.81
CCCCCNC(=O)C[N+](C)(C)CCCOc1ccc2ccc(=O)oc2c1CC=C(C)C.[Br-] 0.90
CCCN(CCC)C(=O)C[N+](C)(C)CCCCOc1ccc2ccc(=O)oc2c1CC=C(C)C.[Br-] 1.51
CCCNC(=O)C[N+](C)(C)CCCOc1ccc2ccc(=O)oc2c1CC=C(C)C.[Br-] 2.11

Q: May I ask what log10 of MIC has been recorded for CC(C)=CCc1c(OCCC[N+](C)(C)CC(=O)N(CC(C)C)CC(C)C)ccc2ccc(=O)oc12.[Br-] ?
Result: 0.60

Q: Field request: log10 of MIC | item: CC(C)=CCc1c(OCCCC[N+](C)(C)CC(=O)N(C(C)C)C(C)C)ccc2ccc(=O)oc12.[Br-]
Result: 1.20

Q: Name the recorded log10 of MIC for CCNC(=O)C[N+](C)(C)CCCCOc1ccc2ccc(=O)oc2c1CC=C(C)C.[Br-] .
Result: 1.81

Q: Which log10 of MIC is reported for this compound? CCCCNC(=O)C[N+](C)(C)CCCCOc1ccc2ccc(=O)oc2c1CC=C(C)C.[Br-]
Result: 1.20

Q: log10 of MIC lookup needed for CCNC(=O)C[N+](C)(C)CCCOc1ccc2ccc(=O)oc2c1CC=C(C)C.[Br-] , thanks.
Result: 2.11

Q: What value of measured log10 of MIC is listed for CC(C)=CCc1c(OCCCCC[N+](C)(C)CC(=O)N(CC(C)C)CC(C)C)ccc2ccc(=O)oc12.[Br-] ?
Result: 0.00

Q: I am curious: what log10 of MIC value has been reported for CCN(CC)C(=O)C[N+](C)(C)CCCCOc1ccc2ccc(=O)oc2c1CC=C(C)C.[Br-] ?
Result: 1.81

These measurements were taken from ChEMBL document CHEMBL5500372.
